I'd be grateful if you could share measured GI50 for these entries.
- System: HT29 colon
- MEASUREMENT NOTES: NCI tumour cell line growth inhibition, 48 h
*1 amine or outer side, *2 acyl side, *3 side chain or, on linkers, in order; H or OH if unused. Where a SMILES comes first, the peptide text is derived from it. Bridges are numbered along the chain shown (N, C = ends). [ ]: non-standard residue; d: D form. Adda = CO[C@@H](Cc1ccccc1)[C@@H](C)/C=C(C)/C=C/[C@H](N[*:1])[C@H](C)C(=O)[*:2]; dAsp(3S-Me) = C[C@H](C(=O)[*:3])[C@@H](N[*:1])C(=O)[*:2]; d(γGlu) = O=C(O)[C@@H](CCC(=O)[*:2])N[*:1]; NMeDha = C=C(NC)C(=O)O

COMPOUND | MEASURED RESULT
O=C1c2ccccc2-c2nnc(-c3ccc(Br)cc3)cc21 | > 100 µM
CCN1CCN(c2cc(C)nc(N(CCNc3ccnc4cc(Cl)ccc34)Cc3ccc4c(c3)OCO4)n2)CC1 | 1.16 µM
C[C@@H]1C[N+]2([O-])[C@H]3C4=CCC[C@@H]4CC[C@H]3[C@@]3(C)OC(=O)CC[C@]34CC[C@H]1[C@@H]42 (stereo not given in full) | > 60 µM
C=C1C(=O)N[C@H](C)C(=O)N[C@@H](CC(C)C)C(=O)N[C@@H](C(=O)O)[C@H](C)C(=O)N[C@@H](CCCN=C(N)N)C(=O)N[C@@H](/C=C/C(C)=C/[C@H](C)[C@H](Cc2ccccc2)OC)[C@H](C)C(=O)N[C@@H](C(=O)O)CCC(=O)N1C (R[Adda][d(γGlu)][NMeDha][dA]L[dAsp(3S-Me)]-OH; lactam N-7) | > 5 µM

Field: next compound
The compound identified as CC(=O)O[C@H]1CCC2(C)C(=CCC3C2CCC2(C)/C(=N/OC(=O)c4ccc(N(CCCl)CCCl)cc4)CCC32)C1 (stereo not given in full) registered its GI50 at 4.92 µM
